Notes on IC50 obtained with 3',5'-cyclic-AMP phosphodiesterase 4D (Homo sapiens, UniProt Q08499).
Sequence (Q08499 whole entry): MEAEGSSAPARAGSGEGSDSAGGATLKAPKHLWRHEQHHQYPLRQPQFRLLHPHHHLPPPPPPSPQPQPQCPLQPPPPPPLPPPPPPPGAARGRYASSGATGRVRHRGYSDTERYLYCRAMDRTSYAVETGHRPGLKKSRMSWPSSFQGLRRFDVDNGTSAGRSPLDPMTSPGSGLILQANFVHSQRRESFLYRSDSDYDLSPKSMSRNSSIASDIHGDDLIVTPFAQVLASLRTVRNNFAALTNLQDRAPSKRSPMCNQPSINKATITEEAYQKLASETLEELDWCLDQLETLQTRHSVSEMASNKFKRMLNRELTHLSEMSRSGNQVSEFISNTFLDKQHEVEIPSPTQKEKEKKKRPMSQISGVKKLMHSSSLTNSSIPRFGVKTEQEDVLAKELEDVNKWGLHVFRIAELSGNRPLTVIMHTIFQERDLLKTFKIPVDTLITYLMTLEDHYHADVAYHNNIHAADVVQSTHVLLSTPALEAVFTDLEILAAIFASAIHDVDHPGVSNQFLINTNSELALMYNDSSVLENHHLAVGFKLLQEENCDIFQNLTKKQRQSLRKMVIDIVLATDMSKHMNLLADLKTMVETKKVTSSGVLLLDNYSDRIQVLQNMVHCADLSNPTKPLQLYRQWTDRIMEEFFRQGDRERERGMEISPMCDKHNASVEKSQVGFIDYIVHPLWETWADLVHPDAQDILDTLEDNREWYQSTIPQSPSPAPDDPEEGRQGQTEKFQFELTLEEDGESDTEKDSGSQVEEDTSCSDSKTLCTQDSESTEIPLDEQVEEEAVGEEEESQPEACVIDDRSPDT
reported.property: IC50 (µM)

{"compound": "COc1cc2c(cc1OC1CCCC1)CN(S(=O)(=O)c1ccc(NC(C)=O)cc1)CC2", "unit.annotation": "µM", "IC50": 11.6}
{"compound": "COC(=O)C1Cc2cc(OC)c(OC3CCCC3)cc2CN1C(=O)c1ccc(OC(F)(F)F)cc1 (stereo unspecified)", "unit.annotation": "µM", "IC50": 18.4}
{"compound": "COc1ccc(C(=O)N2CCc3cc(OC)c(OC4CCCC4)cc3C2)cc1", "unit.annotation": "µM", "IC50": 13.3}

a: COc1cc2c(cc1OC1CCCC1)CN(S(=O)(=O)c1ccc(Cl)cc1)CC2
b: CCOC(=O)C1Cc2cc(OC)c(OC3CCCC3)cc2CN1C(=O)c1ccc(OC(F)(F)F)cc1 (stereo unspecified)
c: COc1cc2c(cc1OC1CCCC1)CN(C(=O)c1ccc(OC(F)(F)F)cc1)CC2
Put the items in order so that reported IC50 rises from first to last. Reply with the item labels sorted in the order that was asked for. c, b, a
(c: 6.5 µM, b: 32.7 µM, a: 134 µM)

---

Please consider the recorded IC50 for High affinity 3',5'-cyclic-AMP phosphodiesterase 7A (Homo sapiens) in what follows.

{"molecule": "COc1cc2c(cc1OC1CCCC1)CN(S(=O)(=O)c1ccc(NC(C)=O)cc1)CC2", "IC50": "> 100 µM"}

In the following, a different molecule is considered.
Lab note: measured IC50 of COC(=O)C1Cc2cc(OC)c(OC3CCCC3)cc2CN1C(=O)c1ccc(OC(F)(F)F)cc1 (configuration not stated) was > 100 µM

Numbers sourced from ChEMBL document CHEMBL4184310.
